- Test system: U251 CNS
- Protocol Details: NCI tumour cell line growth inhibition, 48 h
# cutoff 30 µM applies to TGI; >= gives YES, < gives NO

For this compound, is measured TGI 30 µM or higher? "NC(N)=NNC(=O)CCn1[nH]c(=O)c(Cl)c(Cl)c1=O" YES

For this compound, is measured TGI 30 µM or higher? "Cn1cc(NC(=O)c2cc(NC(=O)CCCCCCCCC(=O)Nc3cc(C(=O)Nc4cc(C(=O)NCCC(N)N)n(C)c4)n(C)c3)cn2C)cc1C(=O)NCCC(=N)N" YES

For this compound, is measured TGI 30 µM or higher? CC(C)[C@@H](C)CC[C@@H](C)C1CC=C2[C@@H]3CCC4C[C@@H](O[Si](C)(C)C(C)(C)C)CC[C@]4(C)C3CC[C@@]21C (some centres undefined) YES

For this compound, is measured TGI 30 µM or higher? "CC(C)Cn1cnc2c(Sc3c([N+](=O)[O-])ncn3C)nc(N)nc21" YES

For this compound, is measured TGI 30 µM or higher? "COc1ccc2nc3n[nH]c(N)c3nc2c1" YES

For this compound, is measured TGI 30 µM or higher? "N#Cc1cc2c(cc1Cl)SC(=Nc1ccccc1)N(S(=O)(=O)c1ccc(Cl)cc1)S2(=O)=O" YES

For this compound, is measured TGI 30 µM or higher? CC(=O)O[C@@H]1C(C2CCCCC2)C=[N+]([O-])O[C@@H]1OC1CCCC1(c1ccccc1)c1ccccc1 (some centres undefined) NO

For this compound, is measured TGI 30 µM or higher? "COc1ccc(OC)c(N(CCN2C(=O)c3ccccc3C2=O)C(=O)CCl)c1" NO

For this compound, is measured TGI 30 µM or higher? "c1ccc(-c2n(Cc3ccc4ccccc4n3)cc[n+]2Cc2ccc3ccccc3n2)cc1" NO

====

- Tested on: KM12 colon
- Protocol Details: NCI tumour cell line growth inhibition, 48 h
Test Readout: GI50

Solved entries (count: 3):
Compound | Test Readout | Recorded Result
COc1ccc(-c2nc(S(=O)(=O)c3ccccc3)c(S(=O)CC(=O)N3CCC(C)CC3)o2)cc1 (centres undefined) | GI50 | 4720 nM
CC(C)c1ccc(COCc2cc(CN3CCCC3)c(O)c3ncccc23)cc1 | GI50 | 534 nM
Cn1ccnc1C(=O)/C=C/c1ccc(C(=O)Nc2ccc(F)cc2)cc1 | GI50 | 481 nM

Now for the compound whose GI50 we want.
Request the reported GI50 associated with "COc1cc(Cl)cc(-c2nn(-c3cccc(NC(=O)c4cccc(C(F)(F)F)c4)c3)cc2-c2ccncc2)c1" 4530 nM

====

- Tested on: MALME-3M melanoma
- Protocol Details: NCI tumour cell line growth inhibition, 48 h
Test Readout: TGI

Request the reported TGI associated with "O=c1cc(N2CCOCC2)[nH]c(=O)n1-c1cccc(Cl)c1" > 100 µM

Request the reported TGI associated with COC(=O)C1C(O)C(C)C(O)C(C)(O)C=C(C)C2=C3C(=C(C)C(=O)c4c(O)c(c(C)c(OC(C)=O)c43)NC(=O)C(C)=C/C=C\C(C)(O)C(O)C(C)C1O)OCO2 (configuration not stated) 74.2 µM

Request the reported TGI associated with "COc1ccc(/C=C/c2cc(OC)cc(OC)c2)cc1" > 100 µM

Request the reported TGI associated with "Cc1nc2ccccc2c(=O)n1NC(=O)c1ccc(N)cc1" > 100 µM

Request the reported TGI associated with "CC(=O)Oc1ccc2c3c1[C@H]1O[C@H]1c1cccc(c1-3)[C@@H]1O[C@H]21" 5.76 µM

Request the reported TGI associated with CC1(C)CCCC2(C)[C@@H]1CC[C@@]13CC(=O)[C@@](C)(CC[C@@H]21)C3 (some centres not stated) > 100 µM

Request the reported TGI associated with "Cc1cc2nc3[nH]c4c(Cl)cc(Cl)cc4c3nc2cc1C" > 100 µM

Request the reported TGI associated with "COc1ccc(-c2cc(-c3ccccc3)nc(N)c2-c2ccc3ccccc3c2)cc1" 2.75 µM

Request the reported TGI associated with COc1ccc(N2C(=O)C3c4[nH]c5cccc(Cl)c5c4C4CCC(C(C)(C)C)CC4C3C2=O)cc1 (configuration not stated) > 100 µM

Request the reported TGI associated with "Fc1cc(-c2csc3n[nH]c(=S)n23)c(Cl)cc1Cl" > 100 µM

Request the reported TGI associated with "Cc1cccc(-n2c(C)nc3ccc(NC(=S)Nc4ccccc4)cc3c2=O)c1" > 100 µM

Request the reported TGI associated with CC(=O)Oc1cn(-c2ccc(Cl)cc2)nc1C1=NN(C(C)=O)C(c2ccc(F)cc2F)O1 (configuration not stated) 63.5 µM

Request the reported TGI associated with "Cn1ccnc1CCc1ccc(Cl)cc1Cl" > 100 µM

Request the reported TGI associated with "C=CCN(c1cc(OCc2ccccc2)c2c(c(C)cn2S(=O)(=O)c2ccc([N+](=O)[O-])cc2)c1[N+](=O)[O-])S(C)(=O)=O" > 100 µM

Request the reported TGI associated with "C(=C\c1cc(CCc2nc3ccccc3[nH]2)[nH]n1)/c1ccccc1" > 100 µM

Request the reported TGI associated with "COc1cc2c(cc1OC)-c1cc(OC)c(OC)cc1[C@H]1CN3CCC[C@@]3(O)C=C21" < 0.0001 µM

Request the reported TGI associated with OC1CC1Sc1ccccc1 (configuration not stated) > 100 µM

Request the reported TGI associated with "Oc1ccc(-c2nc3ccc(F)cc3s2)cc1" 38.5 µM
